Recorded values, source ChEMBL document CHEMBL1201862.

Tested on: UO-31
experiment: NCI tumour cell line growth inhibition, 48 h
Activity calls are given as the source filed them. Rule as the data show it: active = GI50 up to about 1.1 µM and inactive = higher.
Permitted responses: YES for active, NO for inactive

Illustrative cases are given below, each with its answer.
{"molecule": "COC(=O)c1ccccc1/C=C1/Cc2ccccc2C1=O", "target-under-test": "UO-31", "discrete-label": "NO"}
{"molecule": "CC(=O)[C@@H](C)C(=O)N1C(=O)OC[C@@]12[C@@H]1CC[C@@H](C1)C2(C)C", "target-under-test": "UO-31", "discrete-label": "NO"}
{"molecule": "O=c1c(O)cccn1C1OC(CO)C(O)C1O (stereo not given)", "target-under-test": "UO-31", "discrete-label": "NO"}
{"molecule": "COc1ccc(C(c2c[nH]c3ccc(Br)cc23)c2c[nH]c3ccc(Br)cc23)cc1", "target-under-test": "UO-31", "discrete-label": "YES"}
{"molecule": "CCOC(=O)NC1=C(N2CC2)C(=O)C(NC(=O)OCC)=C(N2CC2)C1=O [DIAZIQUONE]", "target-under-test": "UO-31", "discrete-label": "NO"}
{"molecule": "COc1cc2c(cc1O)C=NCC2", "target-under-test": "UO-31", "discrete-label": "NO"}
{"molecule": "Nc1c(C(=O)O)c2ccc([N+](=O)[O-])cc2c(=O)n1-c1nc2ccccc2s1", "target-under-test": "UO-31", "discrete-label": "NO"}
{"molecule": "Cc1ccc(NC(=O)CC/C(CC(=O)c2ccc(Cl)cc2)=N\\NC(=O)C(=O)NN)cc1C", "target-under-test": "UO-31", "discrete-label": "NO"}
{"molecule": "COc1cccc(CCNc2c(C#N)c3nc4ccccc4n3c3ccccc23)c1", "target-under-test": "UO-31", "discrete-label": "NO"}

Then this molecule:
State the result this test recorded for c1ccc2c3c(ccc2c1)-c1[nH]ncc1CCO3 .
NO
